- method.summary: pKa value was determined
- Type: physicochemical
reported.endpoint: pKa

{"columns": ["compound", "recorded.result"],
 "data": [
  ["CO[C@@H]1[C@@H](OC(=O)c2ccc(C)[nH]2)[C@@H](O)[C@H](Oc2ccc3c(N4CCN(C)CC4)c(Cl)c(=O)oc3c2C)OC1(C)C", 7.4],
  ["CO[C@@H]1[C@@H](OC(=O)c2ccc(C)[nH]2)[C@@H](O)[C@H](Oc2ccc3c(N4CC(C)NC(C)C4)cc(=O)oc3c2C)OC1(C)C (stereo partly drawn)", 8],
  ["CO[C@@H]1[C@@H](OC(=O)c2ccc(C)[nH]2)[C@@H](O)[C@H](Oc2ccc3c(N(C)CCN(C)C)cc(=O)oc3c2C)OC1(C)C", 8.2]
]}
